# Target entity: T1, PUF4 RNA-binding domain (Saccharomyces cerevisiae, UniProt P25339 537-888)
# T1 sequence: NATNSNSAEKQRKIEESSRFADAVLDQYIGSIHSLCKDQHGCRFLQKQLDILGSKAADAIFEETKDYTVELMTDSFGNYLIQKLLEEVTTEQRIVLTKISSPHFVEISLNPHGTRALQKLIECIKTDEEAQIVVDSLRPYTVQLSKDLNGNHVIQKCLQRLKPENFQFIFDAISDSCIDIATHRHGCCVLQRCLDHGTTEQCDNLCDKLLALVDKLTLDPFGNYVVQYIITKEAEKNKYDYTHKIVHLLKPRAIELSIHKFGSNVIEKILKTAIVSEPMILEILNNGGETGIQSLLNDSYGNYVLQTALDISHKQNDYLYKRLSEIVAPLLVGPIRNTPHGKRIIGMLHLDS
# Assay name: Mg; RNA-MaP; 20 mM Na-HEPES pH 7.4, 30 mM KOAc, 0.75 mM MgCl2, 0.1% Tween-20, 5% glycerol, 0.1 mg/mL BSA, 2 mM DTT; 25 C; 0.0125-409.6 nM protein
# Conditions used: tags: N-His6-TEV cleaved; C-SNAP kept, Cy3B-labelled; label: tethered on chip by stalled RNA polymerase
pKd: −log10 of the molar value.
Quantity kind: pKd

binder="ACAAACGGACACUUAUUAAGACAAAC (ssRNA) [Id_ii_S3_P5E.4_K5.3_C5.2_[C-2G]_[T-1G]_H5.3_A5.1_F5.1_T5.2_[T11A]_[A12G]]" quantity_kind=pKd sign=< experimental_value=5.64
binder="UCUCUUUGUAUGUAUUCUCUU (ssRNA) [Ic_S1_P4E.1_K4.1_C4.1_H4.1_A4.1_[A6G]_F4.1_[T8A]_[A9T]_T4.1]" quantity_kind=pKd sign== experimental_value=7.15
binder="Ib_S2_P5E.1_K5.1_C5.1_H5.1_[T1A]_A5.1_[T6C]_F5.1_T5.1 (ssRNA) RNA: UUUGAUUAAUAUGAUAUCGUUCUUUCUAGUAUCAUUAUUCUUUCUCGAUAUCAUAUUAAUCUUU" quantity_kind=pKd sign== experimental_value=5.78
binder="UCUCUUUGUGUUUUAUCUCUU (ssRNA) [Ib_S1_P4E.1_K4.1_C4.1_H4.1_[A4G]_A4.1_[A6T]_F4.1_T4.1]" quantity_kind=pKd sign== experimental_value=7.88

The reported measurements were obtained from paper PMC9352680.
